# MIC listing for each entry below
# Test system: Staphylococcus aureus
# ASSAY SUMMARY: Minimum inhibitory concentration against Staphylococcus aureus ATCC 6538PEry-S
# Format: functional
# STUDY CONDITIONS: ATCC 6538P

{"COMPOUND": "CC[C@H]1OC(=O)[C@H](C)C(=O)[C@H](C)[C@@H](O[C@@H]2O[C@H](C)C[C@H](N(C)C)[C@H]2O)[C@](C)(OC/C=C/c2cncc3ccccc23)C[C@@H](C)C(=O)[C@H](C)[C@H]2NC(=O)O[C@@]21C", "UNIT STRING": "µg/mL", "MIC": 0.1}
{"COMPOUND": "CC[C@H]1OC(=O)[C@H](C)C(=O)[C@H](C)[C@@H](O[C@@H]2O[C@H](C)C[C@H](N(C)C)[C@H]2O)[C@](C)(OC/C=C/c2cccc3cnccc23)C[C@@H](C)C(=O)[C@H](C)[C@H]2NC(=O)O[C@@]21C", "UNIT STRING": "µg/mL", "MIC": 0.1}
{"COMPOUND": "C=CCO[C@]1(C)C[C@@H](C)C(=O)[C@H](C)[C@H]2N(CCN(C)C)C(=O)O[C@]2(C)[C@@H](CC)OC(=O)[C@H](C)C(=O)[C@H](C)[C@H]1O[C@@H]1O[C@H](C)C[C@H](N(C)C)[C@H]1O", "UNIT STRING": "µg/mL", "MIC": 6.2}
{"COMPOUND": "CC[C@H]1OC(=O)[C@H](C)C(=O)[C@H](C)[C@@H](O[C@@H]2O[C@H](C)C[C@H](N(C)C)[C@H]2O)[C@](C)(OC/C=C/c2cccc3cccnc23)C[C@@H](C)C(=O)[C@H](C)[C@H]2NC(=O)O[C@@]21C", "UNIT STRING": "µg/mL", "MIC": 0.2}
{"COMPOUND": "CC[C@H]1OC(=O)[C@H](C)C(=O)[C@H](C)[C@@H](O[C@@H]2O[C@H](C)C[C@H](N(C)C)[C@H]2O)[C@](C)(OC/C=C/c2cnc3ccncc3c2)C[C@@H](C)C(=O)[C@H](C)[C@H]2NC(=O)O[C@@]21C", "UNIT STRING": "µg/mL", "MIC": 0.05}
{"COMPOUND": "C=CCO[C@]1(C)C[C@@H](C)C(=O)[C@H](C)[C@@H](O)[C@](C)(O)[C@@H](CC)OC(=O)[C@H](C)C(=O)[C@H](C)[C@H]1O[C@@H]1O[C@H](C)C[C@H](N(C)C)[C@H]1O", "UNIT STRING": "µg/mL", "MIC": 12.5}
{"COMPOUND": "CC[C@H]1OC(=O)[C@H](C)C(=O)[C@H](C)[C@@H](O[C@@H]2O[C@H](C)C[C@H](N(C)C)[C@H]2O)[C@](C)(OC/C=C/c2cnc3ccccc3c2)C[C@@H](C)C(=O)[C@H](C)[C@H]2N(CCN(C)C)C(=O)O[C@]12C", "UNIT STRING": "µg/mL", "MIC": 0.39}
{"COMPOUND": "CC[C@H]1OC(=O)[C@H](C)C(=O)[C@H](C)[C@@H](O[C@@H]2O[C@H](C)C[C@H](N(C)C)[C@H]2O)[C@](C)(OC/C=C/c2ccc3nccnc3c2)C[C@@H](C)C(=O)[C@H](C)[C@H]2NC(=O)O[C@@]21C", "UNIT STRING": "µg/mL", "MIC": 0.1}
{"COMPOUND": "CC[C@H]1OC(=O)[C@H](C)C(=O)[C@H](C)[C@@H](O[C@@H]2O[C@H](C)C[C@H](N(C)C)[C@H]2O)[C@](C)(OC/C=C/c2cnc3ccccc3c2)C[C@@H](C)C(=O)[C@H](C)[C@H]2N(C)C(=O)O[C@]12C", "UNIT STRING": "µg/mL", "MIC": 0.1}
{"COMPOUND": "CC[C@H]1OC(=O)[C@H](C)C(=O)[C@H](C)[C@@H](O[C@@H]2O[C@H](C)C[C@H](N(C)C)[C@H]2O)[C@](C)(OCC=Cc2cnc3ccccc3c2)C[C@@H](C)C(=O)[C@H](C)[C@H]2NC(=O)O[C@@]21C [CETHROMYCIN]", "UNIT STRING": "µg/mL", "MIC": 0.05}
{"COMPOUND": "CC[C@H]1OC(=O)[C@H](C)C(=O)[C@H](C)[C@@H](O[C@@H]2O[C@H](C)C[C@H](N(C)C)[C@H]2O)[C@](C)(OC/C=C/c2ccc3ncccc3c2)C[C@@H](C)C(=O)[C@H](C)[C@H]2NC(=O)O[C@@]21C", "UNIT STRING": "µg/mL", "MIC": 0.05}
{"COMPOUND": "C=CCO[C@]1(C)C[C@@H](C)C(=O)[C@H](C)[C@H]2NC(=O)O[C@]2(C)[C@@H](CC)OC(=O)[C@H](C)[C@@H](O[C@H]2C[C@@](C)(OC)[C@@H](O)[C@H](C)O2)[C@H](C)[C@H]1O[C@@H]1O[C@H](C)C[C@H](N(C)C)[C@H]1O", "UNIT STRING": "µg/mL", "MIC": 0.2}
{"COMPOUND": "CC[C@H]1OC(=O)[C@H](C)C(=O)[C@H](C)[C@@H](O[C@@H]2O[C@H](C)C[C@H](N(C)C)[C@H]2O)[C@](C)(OC/C=C/c2cccnc2)C[C@@H](C)C(=O)[C@H](C)[C@H]2NC(=O)O[C@@]21C", "UNIT STRING": "µg/mL", "MIC": 0.1}
{"COMPOUND": "CC[C@H]1OC(=O)[C@H](C)C(=O)[C@H](C)[C@@H](O[C@@H]2O[C@H](C)C[C@H](N(C)C)[C@H]2O)[C@](C)(OCCNCCc2ccccc2)C[C@@H](C)C(=O)[C@H](C)[C@@H](O)[C@]1(C)O", "UNIT STRING": "µg/mL", "MIC": 6.2}
{"COMPOUND": "CC[C@H]1OC(=O)[C@H](C)C(=O)[C@H](C)[C@@H](O[C@@H]2O[C@H](C)C[C@H](N(C)C)[C@H]2O)[C@](C)(OC/C=C/c2ccc(OC)cc2)C[C@@H](C)C(=O)[C@H](C)[C@@H](O)[C@]1(C)O", "UNIT STRING": "µg/mL", "MIC": 1.56}
{"COMPOUND": "CC[C@H]1OC(=O)[C@H](C)C(=O)[C@H](C)[C@@H](O[C@@H]2O[C@H](C)C[C@H](N(C)C)[C@H]2O)[C@](C)(OC/C=C/c2ccc3cccnc3c2)C[C@@H](C)C(=O)[C@H](C)[C@H]2NC(=O)O[C@@]21C", "UNIT STRING": "µg/mL", "MIC": 0.05}
{"COMPOUND": "CC[C@H]1OC(=O)[C@H](C)C(=O)[C@H](C)[C@@H](O[C@@H]2O[C@H](C)C[C@H](N(C)C)[C@H]2O)[C@](C)(OC/C=C/c2ccc3ccccc3n2)C[C@@H](C)C(=O)[C@H](C)[C@H]2NC(=O)O[C@@]21C", "UNIT STRING": "µg/mL", "MIC": 0.39}

###

# ASSAY SUMMARY: Minimum inhibitory concentration against Streptococcus pyogenes 930MLSB
# Assay type: functional
Recorded MIC by entry
METRIC NAME: MIC

{"COMPOUND": "CC[C@H]1OC(=O)[C@H](C)C(=O)[C@H](C)[C@@H](O[C@@H]2O[C@H](C)C[C@H](N(C)C)[C@H]2O)[C@](C)(OCC=Cc2cnc3ccccc3c2)C[C@@H](C)C(=O)[C@H](C)[C@H]2NC(=O)O[C@@]21C [CETHROMYCIN]", "REPORTED MEASUREMENT": "1 µg/mL"}
{"COMPOUND": "CC[C@H]1OC(=O)[C@H](C)C(=O)[C@H](C)[C@@H](O[C@@H]2O[C@H](C)C[C@H](N(C)C)[C@H]2O)[C@](C)(OC/C=C/c2cccc3ccccc23)C[C@@H](C)C(=O)[C@H](C)[C@H]2NC(=O)O[C@@]21C", "REPORTED MEASUREMENT": "16 µg/mL"}
{"COMPOUND": "CC[C@H]1OC(=O)[C@H](C)C(=O)[C@H](C)[C@@H](O[C@@H]2O[C@H](C)C[C@H](N(C)C)[C@H]2O)[C@](C)(OCCNCc2ccnc3ccccc23)C[C@@H](C)C(=O)[C@H](C)[C@@H](O)[C@]1(C)O", "REPORTED MEASUREMENT": "> 128 µg/mL"}
{"COMPOUND": "CC[C@H]1OC(=O)[C@H](C)C(=O)[C@H](C)[C@@H](O[C@@H]2O[C@H](C)C[C@H](N(C)C)[C@H]2O)[C@](C)(OCCNCCCc2cnc3ccccc3c2)C[C@@H](C)C(=O)[C@H](C)[C@H]2NC(=O)O[C@@]21C", "REPORTED MEASUREMENT": "> 100 µg/mL"}
